Biological target: T1, βTrCP (tag cleaved and complexed with Skp1) (UniProt Q9Y297 175-605; P63208 1-163)
T1 construct: Protein of the FP assay (0.035 µM); also called Beta Transducin repeat-containing protein; βTrCP/Skp1
T1 sequence (Q9Y297 175-605, chain 1 of 2): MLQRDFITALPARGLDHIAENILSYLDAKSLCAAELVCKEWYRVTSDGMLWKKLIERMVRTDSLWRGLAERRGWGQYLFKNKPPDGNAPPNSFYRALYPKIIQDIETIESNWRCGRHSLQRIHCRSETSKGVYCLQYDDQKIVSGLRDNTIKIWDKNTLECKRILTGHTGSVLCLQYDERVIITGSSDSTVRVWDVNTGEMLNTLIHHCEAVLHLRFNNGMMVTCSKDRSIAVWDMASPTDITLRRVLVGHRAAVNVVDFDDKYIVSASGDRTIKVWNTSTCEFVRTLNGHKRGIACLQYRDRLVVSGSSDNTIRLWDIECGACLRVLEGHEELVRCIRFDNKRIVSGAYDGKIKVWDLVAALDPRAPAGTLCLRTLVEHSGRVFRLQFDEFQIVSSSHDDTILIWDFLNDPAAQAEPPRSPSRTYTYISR
T1 sequence (P63208 whole entry, chain 2 of 2): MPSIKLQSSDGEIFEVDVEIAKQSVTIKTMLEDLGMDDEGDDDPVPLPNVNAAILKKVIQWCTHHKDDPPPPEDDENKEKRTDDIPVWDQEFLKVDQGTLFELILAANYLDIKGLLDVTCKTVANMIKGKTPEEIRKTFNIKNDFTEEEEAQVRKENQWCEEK
Experiment: FP competition vs fluorescein-IκB peptide
Non-standard residues stand in square brackets, D forms with d. *: point of attachment. 4‑(BuO)‑PhSO2 = CCCCOc1ccc(S(=O)(=O)*)cc1; Phe(3-Cl) = N[C@@H](Cc1cccc(Cl)c1)C(=O)O; Phe(3-F) = N[C@@H](Cc1cccc(F)c1)C(=O)O; 1Nal = N[C@@H](Cc1cccc2ccccc12)C(=O)O; Tos = Cc1ccc(S(=O)(=O)*)cc1; Bz = O=C(c1ccccc1)*
measurement-name: pIC50
Please treat pIC50 as minus the base-10 logarithm of the molar concentration.

{"binder": "Tos-[dD]EG[Phe(3-Cl)]WE-NH2 (SMILES Cc1ccc(S(=O)(=O)N[C@H](CC(=O)O)C(=O)N[C@@H](CCC(=O)O)C(=O)NCC(=O)N[C@@H](Cc2cccc(Cl)c2)C(=O)N[C@@H](Cc2c[nH]c3ccccc23)C(=O)N[C@@H](CCC(=O)O)C(N)=O)cc1, also called UBP034) [Ts-dEGF(3Cl)WE-NH2]", "pIC50": 8.00}

# pIC50 of Bz-[dD]EG[Phe(3-F)]WE-NH2 (also called UBP018) [Bz-dEGF(3F)WE-NH2] = 6.76

// sample {4‑(BuO)‑PhSO2}-[dD]EG[Phe(3-F)]WE-NH2 (also called UBP030) [4-(BuO)-PhSO2-dEGF(3F)WE-NH2] , its pIC50 was 7.25

Record summary for Ac-[dD]EG[Phe(3-F)][1Nal]E-NH2 (SMILES CC(=O)N[C@H](CC(=O)O)C(=O)N[C@@H](CCC(=O)O)C(=O)NCC(=O)N[C@@H](Cc1cccc(F)c1)C(=O)N[C@@H](Cc1cccc2ccccc12)C(=O)N[C@@H](CCC(=O)O)C(N)=O, also called UBP016) [Ac-dEGF(3F)1NalE-NH2] : reported pIC50 = 6.95

Summary for this binder, Tos-[dD]DG[Phe(3-F)]WD-NH2 (SMILES Cc1ccc(S(=O)(=O)N[C@H](CC(=O)O)C(=O)N[C@@H](CC(=O)O)C(=O)NCC(=O)N[C@@H](Cc2cccc(F)c2)C(=O)N[C@@H](Cc2c[nH]c3ccccc23)C(=O)N[C@@H](CC(=O)O)C(N)=O)cc1, also called UBP028) [Ts-dDGF(3F)WD-NH2] : pIC50 is 7.09
